- System under test: Sodium channel protein type 5 subunit alpha (Homo sapiens, UniProt Q14524)
- Sequence (Q14524 whole entry): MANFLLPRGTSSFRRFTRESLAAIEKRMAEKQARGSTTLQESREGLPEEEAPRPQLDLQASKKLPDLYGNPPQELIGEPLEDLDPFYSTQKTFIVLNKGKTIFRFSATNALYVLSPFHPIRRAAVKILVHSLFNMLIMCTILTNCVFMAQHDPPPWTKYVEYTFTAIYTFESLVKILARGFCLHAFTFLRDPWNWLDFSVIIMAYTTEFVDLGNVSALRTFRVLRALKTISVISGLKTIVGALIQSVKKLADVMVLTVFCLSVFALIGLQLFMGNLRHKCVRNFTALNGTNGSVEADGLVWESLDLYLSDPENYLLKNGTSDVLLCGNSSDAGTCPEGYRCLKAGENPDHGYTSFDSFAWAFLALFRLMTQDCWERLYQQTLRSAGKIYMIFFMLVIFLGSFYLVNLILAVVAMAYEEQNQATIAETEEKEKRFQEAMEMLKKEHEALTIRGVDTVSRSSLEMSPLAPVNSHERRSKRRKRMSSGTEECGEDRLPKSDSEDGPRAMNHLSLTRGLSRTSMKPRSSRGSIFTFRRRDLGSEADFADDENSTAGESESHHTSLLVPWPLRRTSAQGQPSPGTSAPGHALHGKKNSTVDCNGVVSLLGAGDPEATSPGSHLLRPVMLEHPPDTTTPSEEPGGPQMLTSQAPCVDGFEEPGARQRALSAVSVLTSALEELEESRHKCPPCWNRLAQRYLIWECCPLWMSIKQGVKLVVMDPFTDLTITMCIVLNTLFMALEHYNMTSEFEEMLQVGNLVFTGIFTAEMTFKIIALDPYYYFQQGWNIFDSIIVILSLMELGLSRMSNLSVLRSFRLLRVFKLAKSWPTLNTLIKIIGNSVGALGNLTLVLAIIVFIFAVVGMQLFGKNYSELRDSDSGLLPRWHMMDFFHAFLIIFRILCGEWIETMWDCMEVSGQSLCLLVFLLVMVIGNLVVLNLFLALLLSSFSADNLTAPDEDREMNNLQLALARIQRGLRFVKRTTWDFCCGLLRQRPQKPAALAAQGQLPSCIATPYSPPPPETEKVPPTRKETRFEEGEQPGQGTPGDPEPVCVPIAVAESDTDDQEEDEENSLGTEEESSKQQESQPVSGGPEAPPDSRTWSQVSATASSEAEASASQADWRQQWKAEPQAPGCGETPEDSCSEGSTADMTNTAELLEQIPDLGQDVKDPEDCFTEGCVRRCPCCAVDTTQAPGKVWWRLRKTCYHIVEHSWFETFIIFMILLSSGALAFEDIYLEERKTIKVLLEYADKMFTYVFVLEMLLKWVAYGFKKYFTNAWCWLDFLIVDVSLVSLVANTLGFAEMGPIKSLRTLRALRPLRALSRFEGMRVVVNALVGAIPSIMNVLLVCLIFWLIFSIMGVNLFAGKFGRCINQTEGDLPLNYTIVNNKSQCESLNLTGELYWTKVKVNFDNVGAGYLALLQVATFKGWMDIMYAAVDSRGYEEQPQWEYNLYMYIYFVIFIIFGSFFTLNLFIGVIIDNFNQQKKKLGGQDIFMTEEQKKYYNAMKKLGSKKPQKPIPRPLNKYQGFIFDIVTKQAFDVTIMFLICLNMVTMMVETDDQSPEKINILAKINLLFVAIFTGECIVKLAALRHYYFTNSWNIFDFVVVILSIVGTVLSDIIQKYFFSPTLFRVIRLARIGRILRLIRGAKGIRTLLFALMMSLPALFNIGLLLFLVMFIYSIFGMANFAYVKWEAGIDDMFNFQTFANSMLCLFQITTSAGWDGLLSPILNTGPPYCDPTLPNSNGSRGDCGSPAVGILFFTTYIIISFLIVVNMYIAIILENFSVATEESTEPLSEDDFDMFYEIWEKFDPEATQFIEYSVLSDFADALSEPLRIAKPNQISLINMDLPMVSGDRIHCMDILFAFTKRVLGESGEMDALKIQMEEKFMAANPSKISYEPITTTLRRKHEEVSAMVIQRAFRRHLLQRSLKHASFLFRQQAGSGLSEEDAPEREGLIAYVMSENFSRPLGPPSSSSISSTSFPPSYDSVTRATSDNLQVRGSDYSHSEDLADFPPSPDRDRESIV
- Test summary: Inhibition of human Nav1.5 by automated voltage clamp electrophysiology
Just a reminder that ties go to Not met: only IC50 strictly below 2 µM counts as Met.

Example cases with answers are listed next.
[
  {
    "Compound": "O=S(=O)(Nc1cscn1)c1cc(F)c(O[C@H]2CCN(CC(F)(F)F)C[C@@H]2c2ccc(F)c(F)c2)cc1F (racemic)",
    "Cat": "Met"
  },
  {
    "Compound": "O=S(=O)(Nc1ncccn1)c1cc(F)c(O[C@H]2CCN(CC(F)(F)F)C[C@@H]2c2ccccc2)cc1F (racemic)",
    "Cat": "Not met"
  },
  {
    "Compound": "O=S(=O)(Nc1cc(F)ccn1)c1cc(F)c(O[C@H]2CCN(CC(F)(F)F)C[C@@H]2c2ccccc2)cc1F (racemic)",
    "Cat": "Met"
  },
  {
    "Compound": "O=S(=O)(Nc1cccc(Cl)n1)c1cc(F)c(O[C@H]2CCN(CC(F)(F)F)C[C@@H]2c2ccccc2)cc1F (racemic)",
    "Cat": "Met"
  },
  {
    "Compound": "O=S(=O)(Nc1cccc(F)n1)c1cc(F)c(O[C@H]2CCN(CC(F)(F)F)C[C@@H]2c2ccc(F)cc2F)cc1F (racemic)",
    "Cat": "Met"
  }
]

Prompt line: Strictly below 2 µM: is that where IC50 of O=S(=O)(Nc1cscn1)c1cc(F)c(O[C@H]2CCN(CC(F)(F)F)C[C@@H]2c2ccccc2)cc1F (racemic) sits?
Response line: Met

Prompt line: API: query returns whether the compound falls strictly under 2 µM in IC50. Query: O=S(=O)(Nc1ccncn1)c1cc(F)c(O[C@H]2CCN(CC(F)(F)F)C[C@@H]2c2ccccc2)cc1F (racemic)
Response line: Not met

Prompt line: Determine if O=S(=O)(Nc1cccc(F)n1)c1cc(F)c(O[C@H]2CCN(CC(F)(F)F)C[C@@H]2c2ccccc2F)cc1F (racemic) shows IC50 strictly lower than 2 µM.
Response line: Met

Prompt line: Does O=S(=O)(Nc1ncns1)c1cc(F)c(O[C@H]2CCN(CC(F)(F)F)C[C@@H]2c2ccccc2)cc1F (racemic) have IC50 strictly under 2 µM?
Response line: Not met

Prompt line: Determine whether this compound shows IC50 lower than 2 µM (ties excluded): O=S(=O)(Nc1cccc(F)n1)c1cc(F)c(O[C@H]2CCN(CC(F)(F)F)C[C@@H]2c2ccc(F)c(F)c2)c(F)c1F (racemic)
Response line: Met

Prompt line: # TODO verify IC50 < 2 µM strictly for this compound: O=S(=O)(Nc1cccc(F)n1)c1cnc(O[C@H]2CCN(CC(F)(F)F)C[C@@H]2c2ccc(F)c(F)c2)c(F)c1 (racemic)
Response line: Met

Prompt line: Input N#Cc1cccc([C@H]2CN(CC(F)(F)F)CC[C@@H]2Oc2cc(F)c(S(=O)(=O)Nc3cccc(F)n3)cc2F)c1 (racemic) ; condition: IC50 strictly below 2 µM. Does it hold?
Response line: Not met

Prompt line: Record O=S(=O)(Nc1ncccc1F)c1cc(F)c(O[C@H]2CCN(CC(F)(F)F)C[C@@H]2c2ccccc2)cc1F (racemic) : is its IC50 strictly below 2 µM?
Response line: Not met

Prompt line: Hi there! Is IC50 for O=S(=O)(Nc1nncs1)c1cc(F)c(O[C@H]2CCN(CC(F)(F)F)C[C@@H]2c2ccccc2)cc1F (racemic) below 2 µM, do you know?
Response line: Not met
